molecular target: Heat shock protein HSP 90-alpha (Homo sapiens, UniProt P07900); test: Inhibition of recombinant Homo sapiens (human) Hsp90 alpha ATPase activity assessed as inorganic phosphate release by malachite green colorimetric method
measurement.label: pIC50
// pIC50 is dimensionless: -log10 of concentration (M)

# example entries with known answers
- structure.as.smiles: "COc1ccc(NC(=O)C[n+]2ccccc2)cc1"
  numeric.value: 4.88
- structure.as.smiles: "CC(=O)NS(=O)(=O)c1ccc(NC(=O)C[n+]2cccc(C(N)=O)c2)cc1"
  numeric.value: 4.90

Enquiry: Give the reported pIC50 for this compound. CC(=O)NS(=O)(=O)c1ccc(NC(=O)C[n+]2ccccc2)cc1
Return: 4.90

Enquiry: Given NC(=O)c1ccc[n+](CC(=O)Nc2ccccc2)c1 , respond with its pIC50.
Return: 4.88

====

biological target: Heat shock protein HSP 90-alpha (Homo sapiens); experiment: Inhibition of recombinant Homo sapiens (human) Hsp90 alpha ATPase activity assessed as inorganic phosphate release at 10 uM by malachite green colorimetric method
Activity calls are given as the source filed them. The rule behind the calls is not given here.
measurement.label: inhibition

// below: answered compounds
- structure.as.smiles: "Cc1ccc(NC(=O)C[n+]2cccc(C(N)=O)c2)cc1"
  measurement.label: "inhibition"
  result: "34%"
- structure.as.smiles: "Cc1ccc(NC(=O)C[n+]2cccc(C(=O)Nc3ccc(Cl)cc3)c2)cc1"
  measurement.label: "inhibition"
  result: "48%"
- structure.as.smiles: "O=C(C[n+]1ccccc1)Nc1ccc([N+](=O)[O-])cc1"
  measurement.label: "inhibition"
  result: "34%"
- structure.as.smiles: "COc1ccc(NC(=O)c2ccc[n+](CC(=O)Nc3ccc(S(N)(=O)=O)cc3)c2)cc1"
  measurement.label: "inhibition"
  result: "23%"
- structure.as.smiles: "CSc1ccc(NC(=O)c2ccc[n+](CC(=O)Nc3ccc([N+](=O)[O-])cc3)c2)cc1"
  measurement.label: "inhibition"
  result: "3%"

Enquiry: Specify inhibition for NC(=O)c1ccc[n+](CC(=O)Nc2ccccc2)c1 , system Heat shock protein HSP 90-alpha (Homo sapiens).
Return: 37%

Enquiry: # assay system Heat shock protein HSP 90-alpha (Homo sapiens): give inhibition of C=CCNC(=O)C[n+]1cccc(C(N)=O)c1
Return: inactive

Enquiry: Enter measured inhibition, system Heat shock protein HSP 90-alpha (Homo sapiens), for the compound shown: O=C(C[n+]1cccc(C(=O)Nc2ccccc2)c1)Nc1ccc(Cl)cc1
Return: 17%

Enquiry: Param request: inhibition | system Heat shock protein HSP 90-alpha (Homo sapiens) | item NS(=O)(=O)c1ccc(NC(=O)C[n+]2cccc(C(=O)Nc3ccc(Cl)cc3)c2)cc1
Return: 3%

Enquiry: Give inhibition only, for Cc1ccc(NC(=O)C[n+]2cccc(C(=O)Nc3cccc(C)c3)c2)cc1 , using Heat shock protein HSP 90-alpha (Homo sapiens) data.
Return: 16%

Enquiry: Under Heat shock protein HSP 90-alpha (Homo sapiens), report inhibition for NC(=O)c1ccc[n+](CC(=O)NCc2ccccc2)c1
Return: 20%

Enquiry: Tell me inhibition of COc1ccc(NC(=O)C[n+]2cccc(C(=O)Nc3ccc([N+](=O)[O-])cc3)c2)cc1 when tested on Heat shock protein HSP 90-alpha (Homo sapiens).
Return: inactive

====

target: Heat shock protein HSP 90-alpha (Homo sapiens, UniProt P07900); test: Inhibition of recombinant Homo sapiens (human) Hsp90 alpha ATPase activity assessed as inorganic phosphate release at 10 uM by malachite green colorimetric method
measurement.label: inhibition
Reply with a number, then the unit it belongs to.

- structure.as.smiles: "CSc1ccc(NC(=O)C[n+]2cccc(C(=O)Nc3ccccc3)c2)cc1"
  inhibition: "14%"

Enquiry: Hello, please tell me recorded inhibition for this one: Cc1cccc(NC(=O)C[n+]2ccccc2)c1
Return: 12%

Enquiry: Provide one value: measured inhibition of NS(=O)(=O)c1ccc(NC(=O)C[n+]2ccccc2)cc1
Return: 7%
